// data source = the supplement of paper PMC9170038

Documented apparent KD of MS2 coat protein across a set of sequences
test system: MS2 coat protein; experiment: apparent KD of MS2 coat protein; designed switch direction (-1 OFF switch, 1 ON switch): -1; higher = weaker reporter binding; settings: input ligand: microRNA oligo, concentration not stated
Could you give me the number in µM? Just the number is fine.

Example results:
seq_text="AAGGAUCGAGGAUAUACAUAGAUACAGAUUCAUGUAGAACUACAUGAGGAUCACCCAUGUAGAAGGCGAUCCUA [Mat - Same state - Mayanna Mod - D120] (Eterna round: R96, puzzle: Exclusion 2)" measured_parameter="apparent KD of MS2 coat protein" units_text=µM data_value=0.0311
seq_text="CCGGAAAUACAGGAUAUCGUAUCGGAUACGAUACGAGAAGGGUAUACAUGAGGAUCACCCAUGUGUCCUACCGG [Fiskers Ex 6 - 51] (Eterna round: R96, puzzle: Exclusion 6)" measured_parameter="apparent KD of MS2 coat protein" units_text=µM data_value=0.0203
seq_text="CCCUUUCAGGCAGGAUAUGUUCAUUUGUGAAUGGUGCCUACCUCACAUGAGGAUCACCCAUGUGGACAGAAGGGCCGGUGAAAA [Eternabot solution 26] (Eterna round: R96, puzzle: Exclusion NG 2)" measured_parameter="apparent KD of MS2 coat protein" units_text=µM data_value=0.0255

Consider now this further sequence.
Prompt line: Which measured apparent KD of MS2 coat protein value corresponds to UUCGUGUAAGGAUAUACGACUCAUCCCAAUGGGACGAGCACGUAGAAGGUACAUGAGGAUCACCCAUGUGCUCC [Eddianle] (Eterna round: R96, puzzle: Exclusion 4) ?
Response line: 0.0333

* * *

test system: K4 kissing-loop RNA reporter; test: apparent KD of K4 kissing-loop reporter; higher = weaker reporter binding; conditions: Eterna round: R107; input ligand: none;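 further: bound reporter read as fluorescence of individual clusters on recovered sequencing chips by microscopy, with normalized cluster intensities fitted with a binding model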
measured.parameter: apparent KD of K4 kissing-loop reporter (nM)
Number only, in nM; omit the unit.

seq_text="UGACUGGACUGAAGGAGCGCGAACUCCUAGUGAUGUUAGGAAAUACGAGACAAAGUCUCGACGCAGGUAGGUCGCAGUCUAGUCU [ArgBS 15 #SwitchBubble #StaticStem]" measured_parameter="apparent KD of K4 kissing-loop reporter" data_value=107
seq_text=GCCGUAGAUUGAAGGAGCGCUAGUCUACGAUGACACACAGUGAUGUUGUGCGUGAUUUCAUAGCAGGUAGGUCGCAAUCUACGGC measured_parameter="apparent KD of K4 kissing-loop reporter" data_value=214
seq_text=ACGUGCACGAGUGAUGUUUGAAAAUCUGAAGGAGCGGGCGAAAGCCCAGGUAGGUCGCAGAAUAGCACGAGCCACGAAAGUGGCA measured_parameter="apparent KD of K4 kissing-loop reporter" data_value=319
seq_text="ACGUCCGGGUUAAUCGUGGGCGUGGUGGAUACCAGUUCUUUAAUGAACCCUUGGCAGCCACAUGAGUGAUGUUCAUGUGCGAUGA [KL-XTheo-A10 #analogue]" measured_parameter="apparent KD of K4 kissing-loop reporter" data_value=96.2
seq_text="CGAGUGAUGUUCGUUUUUUACUUUUUUUGACAGGAUAUGCGGAAACGCAGAAGGGUCACCUUUGAGUUAAAAGAAGUUAUUUUUU [Ex FMN A 18]" measured_parameter="apparent KD of K4 kissing-loop reporter" data_value=317

Prompt line: What value of apparent KD of K4 kissing-loop reporter has been recorded for this entry: GAUAAAUUGAUGCGUAGUGAUGCACGGGAAGGAGCGCGUUUUUUCGCAGGUAGGUCGCCCGACUGCGCGUUUCGAGUGAUGUUCG [5.)]
Response line: 193

Prompt line: Which measured apparent KD of K4 kissing-loop reporter value corresponds to UGCCCGCGCGAAGGAUAUGAGAGCUUGUCUGUCCAGUGAUGUUGGAGGUUGGUGAUUUGCUAGGCGUCAGAAGGUCGAGCUUAUA [theeternabot_sameState_KL_FMN_B_14] ?
Response line: 153

Prompt line: Which value of apparent KD of K4 kissing-loop reporter has been reported for AGGCACGAGCAAGGAUAUCGAGUGGAGUGAUGUUCUGCCGACCCAGGACCGCAAGGUCCUGGGUCGCGAGAAGGUGCUCGUGCCU [#2 Same State - FMN A Attempt #5 (HarryS)] in the records?
Response line: 730

Prompt line: Give its apparent KD of K4 kissing-loop reporter value. Item: GCUAUGGUAGGAAGGAGCGCGGACGAAAUUUAUCGAGUGAUGUUCGAAUAAUUAAAUAAAACGCAGGUAGGUCGCCUACUAUAGC [Arginine B K4 26]
Response line: 97.5

Prompt line: For the sequence UUUGGAGAGGGAAGGAGCGUGAAAGAGAAAGAAUAUAGUGAUGUUAUAUAGAAGAAAGAAUCACAGGUAGGUCGCCCGGAGGAGG [SSArgB.D] , what apparent KD of K4 kissing-loop reporter is on record?
Response line: 661

Prompt line: Look up apparent KD of K4 kissing-loop reporter for this sequence: UGUCAUGGAAACAUGAACGUUGAAAUAAAUCGAGGACCGGUACGGCCGCCACUCGUAUAGCGGUCAGUGAUGUUGACUGUAAUAA [KL-SSTryp-A form2 sub9]
Response line: 110

Prompt line: Can you look up the measured apparent KD of K4 kissing-loop reporter of AAUGCAUUGUGAAGGAGCGCGUUAAGCAGUGAUGUUGCUUUUAUAUUUUUCAGUUUUAUAUCGCAGGUAGGUCGCACUUUGCAUA [JR_Nu_SSArginiB_Sub029] for me?
Response line: 173

Prompt line: What does the data say about its apparent KD of K4 kissing-loop reporter? Entry: UGAUACCAGACGGCCGCCACUAGGGCUAGCAAAGCUAGCAAGUGAUGUUUGAGGAGUGAUGUUCCUAGGACCGGGUCUGGUAUCU [TrypBX 1 #Palindromic #SwitchBubble #StaticStem]
Response line: 52.2

Prompt line: Can you share its apparent KD of K4 kissing-loop reporter? I mean this sequence: CGUUUAUAGCAGGAUACCAGUACCCAUUAUGUACGUUAAUAGUAGAGUGAUGUUCUAAAGUACCCUUGGCAGCUUCCCGUGACCC [ExTheophylB.Y]
Response line: 140

Prompt line: Fill in: apparent KD of K4 kissing-loop reporter of CGCCGCAACUGAAGGAGCGCGCCAGUGAUGUUGGACGGCUUUGUCAAGGAAACUGCACCGGUGCAGGUAGGUCGCAGUUCGCGGU [Dilea] is ___
Response line: 297

Prompt line: Which apparent KD of K4 kissing-loop reporter value is on record for UUGCGGAGUGAUGUUUCGGGAUAUCGGGAAGGAGCGCCGAUAACGGCAGGUAGGUCGCCCGGUCCAGUGAUGUUGGGCAUGCAUU [Exclusion Arg A GF 23] ?
Response line: 212

Prompt line: If you can, please state the reported apparent KD of K4 kissing-loop reporter value of UGUACCGAGUCAGGAUAUGAACGACUGACAAAAGUCGGUCGAAUAUCCAGUGAUGUUGGAAAUAAAUCAGAAGGGACUUGGUACU [FmnBS 15 #SwitchBubble #StaticStem] .
Response line: 974

* * *

Overview of reported apparent KD of MS2 coat protein across a group of sequences:
tested on: MS2 coat protein; test: apparent KD of MS2 coat protein; designed switch direction (-1 OFF switch, 1 ON switch): -1; higher = weaker reporter binding; details: input ligand: none
Express it in nM; write the number only.

These solved cases illustrate the format of a correct answer.
seq_text="CGUCUGUCAGGAUAUACUUACGUAGACAUGAGGAUCACCCAUGUGACGUGGGACUAGUGAGUAGAAGGGACGAACA [EX5 #74] (Eterna round: R97, puzzle: Exclusion 5)" units_text=nM data_value=46.7
seq_text="CAAGAUUACUGAGGAUAUCCUAGUUUAUCUCAGGGAGAAGGCGGACUCAACAUGAGGAUCACCCAUGUAAGACGGGUACUAGAG [Ex NG1 #15] (Eterna round: R96, puzzle: Exclusion NG 1)" units_text=nM data_value=43.2
seq_text="GUCAGCUCGUCAGGAUAUACAUGCGUGCUUCGGCACGUAUGAUAGAUCACAUGAGGAUCACCCAUGUAGAAGGGACGAGCUGAU [ENG2/4-B2] (Eterna round: R96, puzzle: Exclusion NG 2)" units_text=nM data_value=14.4

Prompt line: // apparent KD of MS2 coat protein lookup, key: GUUUAGUGAGGAUAUGUGGCUUCGAUCGUGAGAUCGAGGCUACAGAAGGCACAUGAGGAUCACCCAUGUUCCUA [salish99_ex4_r4_107] (Eterna round: R97, puzzle: Exclusion 4)
Response line: 16.5

Prompt line: What apparent KD of MS2 coat protein value was documented for this sequence, GGCAUCGGAGGAUAUACUUAUGGUGAUACCCGAAGCUUUCUACUUGAGGAUCACCCAAGUAGAAGGCCGAUGCC [jl-ex2.4.81 ViennaUCT mod] (Eterna round: R97, puzzle: Exclusion 2) ?
Response line: 12.6
